Reference source for all entries: patent US20240317748A1

- system-tested: Menin-MLL1 (Homo sapiens, UniProt O00255)
- Construct: Menin (2-610) isform2
- Sequence (O00255 2-610): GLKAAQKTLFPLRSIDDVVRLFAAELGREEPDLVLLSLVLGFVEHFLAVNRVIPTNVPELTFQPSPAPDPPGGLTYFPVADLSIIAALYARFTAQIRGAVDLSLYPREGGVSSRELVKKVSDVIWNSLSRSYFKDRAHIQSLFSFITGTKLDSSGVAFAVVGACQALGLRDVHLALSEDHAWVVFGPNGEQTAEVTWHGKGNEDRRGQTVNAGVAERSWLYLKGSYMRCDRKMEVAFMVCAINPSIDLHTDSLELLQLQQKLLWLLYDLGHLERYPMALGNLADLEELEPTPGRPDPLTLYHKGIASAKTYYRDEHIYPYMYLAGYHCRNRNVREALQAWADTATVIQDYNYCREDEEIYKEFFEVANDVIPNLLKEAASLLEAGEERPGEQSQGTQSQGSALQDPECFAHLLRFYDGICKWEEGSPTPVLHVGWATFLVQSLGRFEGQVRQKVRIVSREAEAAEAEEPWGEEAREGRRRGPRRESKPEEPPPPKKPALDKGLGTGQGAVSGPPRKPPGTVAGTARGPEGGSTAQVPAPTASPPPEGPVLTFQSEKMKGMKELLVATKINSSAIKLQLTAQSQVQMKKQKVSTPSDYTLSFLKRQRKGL
- method-notes: Menin-MLL1 inhibition assay (fluorescence polarization, Menin protein + FAM-MLL peptide)
- test-conditions: Menin (2-610) isoform 2, FAM-labelled MLL peptide, mP readout; read-out: Biochemical assay Menin-MLL1 IC50
Below, each of the molecules is paired with its reported IC50 value.

# molecule, IC50 / nM
rows = [
    ("CCN(C(=O)c1cc(F)ccc1Oc1cncnc1N1CC2(CCN(C(=O)[C@@H]3C[C@@H](F)CN3)CC2)C1)C1CC1", 10.1),
    ("CCN(C(=O)c1cc(Cl)ccc1Oc1cncnc1N1CC2(CCN(C(=O)[C@@H]3C[C@@H](F)CN3)CC2)C1)C(C)C", 5),
    ("CCN(C(=O)c1cc(F)ccc1Oc1nncnc1N1CC2(CCN(C(=O)C3NC[C@H]4CC(F)(F)C[C@@H]34)CC2)C1)C(C)C (single isomer, unassigned) [Example 98c]", 44.5),
    ("CCN(C(=O)c1cc(F)ccc1Oc1nncnc1N1CC2(CCN(C(=O)[C@H]3NCC[C@@H]3OC)CC2)C1)C(C)C", 5.1),
    ("CCN(C(=O)c1cc(F)ccc1Oc1cncnc1N1CC2(CCN(C(=O)[C@@H]3C[C@@H](F)CN3)C2)C1)C(C)C", 15.4),
    ("CCN(C(=O)c1cc(F)ccc1Oc1cncnc1N1CC2(CCN(C(=O)[C@@H]3C[C@]4(COC)CC4N3)CC2)C1)C(C)C (stereo partly shown)", 16.7),
    ("N#Cc1ccc(-c2cc(F)ccc2Oc2nncnc2N2CC3(CCN(C(=O)[C@H]4NC[C@@H]5C[C@@H]54)CC3)C2)c(C2CC2)n1", 3.4),
    ("CCN(C(=O)c1cc(F)ccc1Oc1cncnc1N1CCC2(CC1)CN(C(=O)[C@@H]1C[C@@H](F)CN1)C2)C(C)C", 7.7),
    ("CCN(C(=O)c1cc(F)ccc1Oc1cncnc1N1CC2(CCN(C(=O)[C@H]3NCc4ccccc43)CC2)C1)C(C)C", 4.5),
    ("CCN(C(=O)c1cc(F)ccc1Oc1cncnc1N1CC2(CCN(C(=O)[C@@H]3CC(C)(O)CN3)CC2)C1)C(C)C (stereo partly shown)", 9.2),
    ("CCN(C(=O)c1cc(F)ccc1Oc1nncnc1N1CC2(CCN(C(=O)[C@@H]3C[C@H](C)CN3)CC2)C1)C(C)C", 4.9),
    ("CCN(C(=O)c1cc(F)ccc1Oc1cncnc1N1CC2(CCN(C(=O)[C@@H]3C[C@@H](OC(F)F)CN3)CC2)C1)C(C)C", 8.3),
    ("CC1(C)[C@@H]2[C@@H](C(=O)N3CCC4(CC3)CN(c3ncnnc3Oc3ccc(F)cc3-c3cncnc3C3CC3)C4)NC[C@@H]21", 3.9),
]
